Recorded values, source patent US20200369728A1.

experiment_notes: Circular dichroism (CD) analysis of alpha-helicity
Type: physicochemical
experimental_context: 222 nm, CD buffer with 50% TFE, 0.05 mg/ml, 4° C.
Bridge positions count the residues as written; N and C are the ends. Square brackets hold non-standard residues; d marks the D form. Peptide text beside a SMILES is read from it. R8 = C=CCCCCCC[C@@](C)(N)C(=O)O; S5 = C=CCCC[C@](C)(N)C(=O)O
readout_type: Molar Ellipticity 50% TFE (222 in 50% TFE) (deg cm^2 dmol^−1)

- compound: "CC[C@H](C)[C@H](NC(=O)[C@H](C)NC(=O)[C@H](C)NC(=O)[C@]1(C)CCC/C=C/CCCCCC[C@@](C)(NC(=O)[C@H](Cc2ccccc2)NC(=O)[C@@H](NC(=O)[C@H](CC(C)C)NC(C)=O)[C@@H](C)O)C(=O)N[C@@H](C)C(=O)N[C@@H](Cc2ccc(O)cc2)C(=O)N[C@@H](Cc2c[nH]c3ccccc23)C(=O)N[C@@H](C)C(=O)N[C@@H](CCC(N)=O)C(=O)N[C@@H](CC(C)C)C(=O)N1)C(=O)N[C@H](C)C(N)=O"
  quantitative_result: "−17957"
- compound: "CC(=O)N[C@@H](CC(C)C)C(=O)N[C@H](C(=O)N[C@@H](Cc1ccccc1)C(=O)N[C@]1(C)CCCCCCC=CCCC[C@@](C)(C(=O)N[C@@H](CO)C(=O)N[C@@H](C)C(=O)N[C@@H](Cc2ccccc2)C(N)=O)NC(=O)[C@H](CC(C)C)NC(=O)[C@H](CCC(N)=O)NC(=O)[C@H](C)NC(=O)[C@H](Cc2c[nH]c3ccccc23)NC(=O)[C@H](Cc2ccc(O)cc2)NC(=O)[C@H](C)NC1=O)[C@@H](C)O [compound 7] (Ac-LTF[R8]AYWAQL[S5]SAF-NH2; staple 4-11)"
  quantitative_result: "−19921.4"

----------
System: Caspase 3
experiment_notes: Caspase 3 detection assay in SJSA1 cells
Assay type: cell-based
experimental_context: 0.3 μM, SJSA1, 48 h, Caspase 3 activation over DMSO-treated cells
Bridge positions count the residues as written; N and C are the ends. Square brackets hold non-standard residues; d marks the D form. Peptide text beside a SMILES is read from it. R8 = C=CCCCCCC[C@@](C)(N)C(=O)O; Cba = N[C@@H](CC1CCC1)C(=O)O; S5 = C=CCCC[C@](C)(N)C(=O)O; Nle = CCCC[C@H](N)C(=O)O

- compound: "CCCC[C@H](NC(=O)[C@H](C)NC(=O)[C@H](C)NC(=O)[C@]1(C)CCCC=CCCCCCC[C@@](C)(NC(=O)[C@H](Cc2ccccc2)NC(=O)[C@@H](NC(=O)[C@H](CC(C)C)NC(C)=O)[C@@H](C)O)C(=O)N[C@@H](CCC(=O)O)C(=O)N[C@@H](Cc2ccc(O)cc2)C(=O)N[C@@H](Cc2c[nH]c3ccccc23)C(=O)N[C@@H](C)C(=O)N[C@@H](CCC(N)=O)C(=O)N[C@@H](CC2CCC2)C(=O)N1)C(=O)N[C@@H](C)C(N)=O [compound 238] (Ac-LTF[R8]EYWAQ[Cba][S5]AA[Nle]A-NH2; staple 4-11)"
  caspase 0.3 μM: 1

----------
experiment_notes: Circular dichroism (CD) analysis of alpha-helicity
Assay type: physicochemical
experimental_context: 50% TFE
Bridge positions count the residues as written; N and C are the ends. Square brackets hold non-standard residues; d marks the D form. Peptide text beside a SMILES is read from it. R8 = C=CCCCCCC[C@@](C)(N)C(=O)O; S5 = C=CCCC[C@](C)(N)C(=O)O; Nle = CCCC[C@H](N)C(=O)O
readout_type: % Helix 50% TFE compared to 50% TFE parent (CD)

- compound: "CC(=O)N[C@@H](CC(C)C)C(=O)N[C@H](C(=O)N[C@@H](Cc1ccccc1)C(=O)N[C@]1(C)CCCCCCC=CCCC[C@@](C)(C(=O)N[C@@H](C)C(=O)N[C@@H](C)C(=O)N[C@@H](C)C(=O)N[C@@H](C)C(=O)N[C@H](C)C(N)=O)NC(=O)[C@H](CC(C)C)NC(=O)[C@H](CCC(N)=O)NC(=O)[C@H](C)NC(=O)[C@H](Cc2c[nH]c3ccccc23)NC(=O)[C@H](Cc2ccc(O)cc2)NC(=O)[C@H](C)NC1=O)[C@@H](C)O"
  result: "131.2%"
- compound: "CC(=O)N[C@@H](CC(C)C)C(=O)N[C@H](C(=O)N[C@@H](Cc1ccccc1)C(=O)N[C@]1(C)CCCCCCC=CCCC[C@@](C)(C(=O)N[C@@H](C)C(=O)N[C@@H](C)C(=O)N[C@@H](C)C(=O)N[C@H](C)C(N)=O)NC(=O)[C@H](CC(C)C)NC(=O)[C@H](CCC(N)=O)NC(=O)[C@H](C)NC(=O)[C@H](Cc2c[nH]c3ccccc23)NC(=O)[C@H](Cc2ccc(O)cc2)NC(=O)[C@H](C)NC1=O)[C@@H](C)O (single isomer, unassigned)"
  result: "123.9%"
- compound: "CCCC[C@H](NC(=O)[C@H](C)NC(=O)[C@H](C)NC(=O)[C@]1(C)CCC/C=C/CCCCCC[C@@](C)(NC(=O)[C@H](Cc2ccccc2)NC(=O)[C@@H](NC(=O)[C@H](CC(C)C)NC(C)=O)[C@@H](C)O)C(=O)N[C@@H](C)C(=O)N[C@@H](Cc2ccc(O)cc2)C(=O)N[C@@H](Cc2c[nH]c3ccccc23)C(=O)N[C@@H](C)C(=O)N[C@@H](CCC(N)=O)C(=O)N[C@@H](CC(C)C)C(=O)N1)C(=O)N[C@@H](C)C(N)=O"
  result: "148.2%"
- compound: "CC(=O)N[C@@H](CC(C)C)C(=O)N[C@H](C(=O)N[C@@H](Cc1ccccc1)C(=O)N[C@]1(C)CCCCCCC=CCCC[C@@](C)(C(=O)N[C@@H](Cc2c[nH]cn2)C(=O)N[C@@H](Cc2c[nH]cn2)C(=O)N[C@@H](CC(C)C)C(=O)N[C@H](C)C(N)=O)NC(=O)[C@H](CC(C)C)NC(=O)[C@H](CCC(N)=O)NC(=O)[C@H](C)NC(=O)[C@H](Cc2c[nH]c3ccccc23)NC(=O)[C@H](Cc2ccc(O)cc2)NC(=O)[C@H](C)NC1=O)[C@@H](C)O [compound 43] (Ac-LTF[R8]AYWAQL[S5]HHL[dA]-NH2; staple 4-11)"
  result: "116.4%"
- compound: "CC[C@H](C)[C@H](NC(=O)[C@H](C)NC(=O)[C@H](C)NC(=O)[C@]1(C)CCC/C=C/CCCCCC[C@@](C)(NC(=O)[C@H](Cc2ccccc2)NC(=O)[C@@H](NC(=O)[C@H](CC(C)C)NC(C)=O)[C@@H](C)O)C(=O)N[C@@H](C)C(=O)N[C@@H](Cc2ccc(O)cc2)C(=O)N[C@@H](Cc2c[nH]c3ccccc23)C(=O)N[C@@H](C)C(=O)N[C@@H](CCC(N)=O)C(=O)N[C@@H](CC(C)C)C(=O)N1)C(=O)N[C@H](C)C(N)=O"
  result: "123.7%"
- compound: "CCCC[C@H](NC(=O)[C@H](CCC(N)=O)NC(=O)[C@H](CCC(N)=O)NC(=O)[C@]1(C)CCCC=CCCCCCC[C@@](C)(NC(=O)[C@H](Cc2ccccc2)NC(C)=O)C(=O)N[C@@H](C)C(=O)N[C@@H](Cc2ccc(O)cc2)C(=O)N[C@@H](Cc2c[nH]c3ccccc23)C(=O)N[C@@H]([C@@H](C)O)C(=O)N[C@@H](C)C(=O)N[C@@H](CC(C)C)C(=O)N1)C(=O)N[C@@H](C(N)=O)C(C)C [compound 41] (Ac-F[R8]AYWTAL[S5]QQ[Nle][dV]-NH2; staple 2-9)"
  result: "136%"
